- Tgt: Te_PtxB Y208F (Trichodesmium erythraeum, UniProt Q119I9, Y234F)
- Sequence (Q119I9 28-298 Y234F limits assumed): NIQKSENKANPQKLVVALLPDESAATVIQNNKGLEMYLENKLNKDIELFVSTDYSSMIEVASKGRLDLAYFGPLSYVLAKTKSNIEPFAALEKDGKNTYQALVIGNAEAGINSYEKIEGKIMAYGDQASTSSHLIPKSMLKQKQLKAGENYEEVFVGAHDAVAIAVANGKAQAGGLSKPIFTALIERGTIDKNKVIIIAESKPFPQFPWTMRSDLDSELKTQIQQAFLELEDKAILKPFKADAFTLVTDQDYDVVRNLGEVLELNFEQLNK
- Assay method text: biochemical
- Measurement conditions: Kd, Te_PtxB Y208F (as quoted in peer review file)
Property name: Kd
Note: a bare number is incomplete; add the unit.

Reported Kd for "O=[PH](O)O" : what is it? 295 µM

----------
- Tgt: UniProtKB Q119I9
- Assay method text: biochemical
- Type: binding, Trichodesmium erythraeum IMS101
- Measurement conditions: Kd, Te_PtxB WT (as quoted in peer review file)
Property name: pKd
Quick note: pKd means taking -log10 of the concentration in moles per liter.

Reported pKd for "O=[PH](O)O" : what is it? 6.77

----------
Quick reference for pKd among some molecules
- Tgt: Ps_PtxB (Stutzerimonas stutzeri)
- Sequence (O69052 24-287): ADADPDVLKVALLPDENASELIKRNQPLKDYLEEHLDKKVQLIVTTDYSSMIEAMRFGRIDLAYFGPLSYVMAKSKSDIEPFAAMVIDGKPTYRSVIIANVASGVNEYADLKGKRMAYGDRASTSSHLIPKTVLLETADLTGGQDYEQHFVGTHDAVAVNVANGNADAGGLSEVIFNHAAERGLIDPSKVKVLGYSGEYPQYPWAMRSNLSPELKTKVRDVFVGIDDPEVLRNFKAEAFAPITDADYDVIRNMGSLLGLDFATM
- Assay method text: biochemical
Quick note: pKd means taking -log10 of the concentration in moles per liter.

Molecule | pKd
O=[PH](O)O | 6.62

Please find the next molecule below.
Reported pKd for O=P(O)(O)O [Phosphate] : what is it? 3.80

----------
- Tgt: Te_PtxB Y208A (Trichodesmium erythraeum, UniProt Q119I9, Y234A)
- Sequence (Q119I9 28-298 Y234A limits assumed): as the sequence (Q119I9 28-298 Y234F limits assumed) above, with F207A counted along it
- Assay method text: biochemical
- Measurement conditions: K d, Te_PtxB Y208A
Property name: pKd
Quick note: pKd means taking -log10 of the concentration in moles per liter.

Reported pKd for O=[PH](O)O [Phosphite, phosphite] : what is it? 3.87

----------
- Tgt: Te_PtxB Y208A (Trichodesmium erythraeum, UniProt Q119I9, Y234A)
- Assay method text: biochemical
- Measurement conditions: Kd, Te_PtxB Y208A (as quoted in peer review file)
Property name: Kd (µM)
Numeric only. Scale: µM

Reported Kd for "O=[PH](O)O" : what is it? 135

----------
- Tgt: UniProtKB A3PC74
- Sequence (A3PC74 25-297): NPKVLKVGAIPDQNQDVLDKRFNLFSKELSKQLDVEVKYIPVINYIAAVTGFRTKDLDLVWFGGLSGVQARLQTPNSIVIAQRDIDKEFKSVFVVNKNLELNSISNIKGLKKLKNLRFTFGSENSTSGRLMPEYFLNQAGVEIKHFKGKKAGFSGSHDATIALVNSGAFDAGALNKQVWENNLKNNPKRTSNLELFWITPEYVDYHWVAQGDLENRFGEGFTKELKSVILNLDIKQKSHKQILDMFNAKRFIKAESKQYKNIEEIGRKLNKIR
- Assay method text: biochemical
- Assay type: binding, Prochlorococcus marinus MIT9301
Property name: Kd (µM)
Numeric only. Scale: µM

Reported Kd for O=[PH](O)O [Phosphite, phosphite] : what is it? 0.051
